The reported measurements were obtained from patent US20240376094A2.

Listing: DC50 of selected molecules
Molecular target: HiBiT-tagged BCL-xL (Homo sapiens, UniProt Q07817)
Construct: expressed in transfected cells; host or cells: NCI-H1650 (ATCC No. CRL-5883), engineered HiBiT cell line
Sequence (Q07817 whole entry): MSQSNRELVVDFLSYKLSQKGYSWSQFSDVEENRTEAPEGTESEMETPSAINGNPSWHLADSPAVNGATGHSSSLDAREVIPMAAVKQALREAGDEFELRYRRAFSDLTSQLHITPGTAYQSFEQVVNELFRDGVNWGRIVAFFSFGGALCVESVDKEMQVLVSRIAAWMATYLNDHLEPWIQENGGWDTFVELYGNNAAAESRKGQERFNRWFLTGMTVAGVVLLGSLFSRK
Test: NCI-H1650 BCL-xL protein levels, Nano-Glo HiBiT Lytic Detection
Format: cell-based
Settings: NCI-H1650 expressing HiBiT-tagged BCL-xL, overnight incubation, read-out: Bcl-xl HIBIT NCIH1650 DC50
Please respond with the number in nM and leave the unit unwritten.

molecule	study-system	DC50 [nM]
Cc1ncsc1-c1ccc([C@H](C)NC(=O)[C@@H]2CC(O)CN2C(=O)[C@@H](NC(=O)CCCCCCCCCCCCCCN(C)CCOC23CC4(C)CC(C)(CC(Cn5ncc(-c6ccc(N7CCCc8c7nnc(Nc7nc9ccccc9s7)c8C)nc6C(=O)O)c5C)(C4)C2)C3)C(C)(C)C)cc1 (stereo in doubt)	HiBiT-tagged BCL-xL (Homo sapiens, UniProt Q07817)	1

Proceed to the following item.
-- ask Query DC50 on HiBiT-tagged BCL-xL (Homo sapiens, UniProt Q07817) for Cc1ncsc1-c1ccc([C@H](C)NC(=O)[C@@H]2C[C@@H](O)CN2C(=O)[C@@H](NC(=O)CCCCCCCCCCCCCCCN(C)CCOC23CC4(C)CC(C)(CC(Cn5ncc(-c6ccc(N7CCCc8c7nnc(Nc7nc9ccccc9s7)c8C)nc6C(=O)O)c5C)(C4)C2)C3)C(C)(C)C)cc1
-- reply 1

---

Biological target: Bcl-xL (Homo sapiens)
Construct: Measured levels of Bcl-xL protein of HCT116 cells treated with the tested compounds; host or cells: HCT116
Assay: HCT116 Bcl-xL degradation, capillary-based immunoassay (WES)
Format: cell-based
Settings: HCT-116; HCT116, 10 nM, 24 h; % of untreated cells
reported-metric: remaining activity at 0.01 µM (%)

Would you please look over these solved cases?
compound	reported-metric	units-of-measure	value-measured
CNCC#Cc1ccc(OCCCc2sc(N(CCCc3cn(CCOCCOCCOCCOCCOCCC(=O)N[C@H](C(=O)N4C[C@H](O)C[C@H]4C(=O)NCc4ccc(-c5scnc5C)cc4)C(C)(C)C)nn3)c3cc(C)c(Nc4nc5ccccc5s4)nn3)nc2C(=O)O)c(F)c1 [Example 29]	remaining activity at 0.01 µM	%	64
Cc1cc(N(CCCCCn2cc(COCCOCCNC(=O)COc3cccc4c3C(=O)N(C3CCC(=O)NC3=O)C4=O)nn2)c2ccc(-c3cnn(CC45CC6(C)CC(C)(C4)CC(OCCN(C)C)(C6)C5)c3C)c(C(=O)O)n2)nnc1Nc1nc2ccccc2s1 (centres unmarked) [Example 65]	remaining activity at 0.01 µM	%	90
Cc1ncsc1-c1ccc([C@H](C)NC(=O)[C@@H]2C[C@@H](O)CN2C(=O)[C@@H](NC(=O)CCCCCCCCCCCCCN(C)CCOC23CC4(C)CC(C)(CC(Cn5ncc(-c6ccc(N7CCCc8c7nnc(Nc7nc9ccccc9s7)c8C)nc6C(=O)O)c5C)(C4)C2)C3)C(C)(C)C)cc1 [Example 4]	remaining activity at 0.01 µM	%	33
Cc1ncsc1-c1ccc(CNC(=O)[C@@H]2C[C@@H](O)CN2C(=O)[C@@H](NC(=O)CCCCCCC(=O)N2CCN(CC#Cc3ccc(OCCCc4sc(N5CCCc6c5nnc(Nc5nc7ccccc7s5)c6C)nc4C(=O)O)c(F)c3)CC2)C(C)(C)C)cc1 [Example 20]	remaining activity at 0.01 µM	%	51
Cc1ncsc1-c1ccc([C@H](C)NC(=O)[C@@H]2C[C@@H](O)CN2C(=O)[C@@H](NC(=O)CCCCCCCCCCCCCCCN(C)CCOC23CC4(C)CC(C)(CC(Cn5ncc(-c6ccc(N7CCCc8c7nnc(Nc7nc9ccccc9s7)c8C)nc6C(=O)O)c5C)(C4)C2)C3)C(C)(C)C)cc1 [Example 1]	remaining activity at 0.01 µM	%	21
Cc1ncsc1-c1ccc(CNC(=O)[C@@H]2C[C@@H](O)CN2C(=O)[C@@H](NC(=O)CCCCC(=O)N2CCN(CC#Cc3ccc(OCCCc4sc(N5CCCc6c5nnc(Nc5nc7ccccc7s5)c6C)nc4C(=O)O)c(F)c3)CC2)C(C)(C)C)cc1 [Example 19]	remaining activity at 0.01 µM	%	104

[A] Cc1c(Nc2nc3ccccc3s2)nnc2c1CCCN2c1ccc(-c2cnn(CC34CC5(C)CC(C)(C3)CC(OCCN(C)CCOCCNc3cccc6c3C(=O)N(C3CCC(=O)NC3=O)C6=O)(C5)C4)c2C)c(C(=O)O)n1 (centres unmarked) [Example 9]
[B] CNCC#Cc1ccc(OCCCc2sc(N(CCCc3cn(CCCCCCCCNC(=O)COc4cccc5c4C(=O)N(C4CCC(=O)NC4=O)C5=O)nn3)c3cc(C)c(Nc4nc5ccccc5s4)nn3)nc2C(=O)O)c(F)c1 (centres unmarked) [Example 30]
-- ask Sort A and B by remaining activity at 0.01 µM descending and give the first. Identify your pick by its label.
-- reply B

---

Biological target: Bcl-xL (Homo sapiens, UniProt Q07817)
Construct: Measured levels of Bcl-xL protein of HCT116 cells treated with the tested compounds; host or cells: HCT116
Test: HCT116 Bcl-xL degradation, capillary-based immunoassay (WES)
Type: cell-based
Details: HCT116, 24 h, 9-point serial dilution
reported-metric: DC50 (nM)

compound	DC50 [nM]
CN[C@@H](C)C(=O)N[C@H](C(=O)N1CCC[C@H]1c1nc(C(=O)c2cccc(OCCCCCCN(C)CCOC34CC5(C)CC(C)(CC(Cn6ncc(-c7ccc(N8CCCc9c8nnc(Nc8nc%10ccccc%10s8)c9C)nc7C(=O)O)c6C)(C5)C3)C4)c2)cs1)C1CCCCC1	0.448
Cc1c(Nc2nc3ccccc3s2)nnc2c1CCCN2c1ccc(-c2cnn(CC34CC5(C)CC(C)(C3)CC(OCCN(C)CCCCCCCCCCCCCCCC(=O)N3CCC(c6ccc7c(c6)CN(C6CCC(=O)NC6=O)C7=O)CC3)(C5)C4)c2C)c(C(=O)O)n1 (stereo not shown)	0.133

[1] Cc1cc(N(CCCCN(C)C(=O)CCCCCCCCCNc2cccc3c2C(=O)N(C2CCC(=O)NC2=O)C3=O)c2ccc(-c3cnn(CC45CC6(C)CC(C)(C4)CC(OCCN(C)C)(C6)C5)c3C)c(C(=O)O)n2)nnc1Nc1nc2ccccc2s1 (stereo not shown)
[2] Cc1ncsc1-c1ccc([C@H](C)NC(=O)[C@@H]2C[C@@H](O)CN2C(=O)[C@@H](NC(=O)COCCCCCCCCCCCCCN(C)CCOC23CC4(C)CC(C)(CC(Cn5ncc(-c6ccc(N7CCCc8c7nnc(Nc7nc9ccccc9s7)c8C)nc6C(=O)O)c5C)(C4)C2)C3)C(C)(C)C)cc1
-- ask Returns the identifier with the smallest measured DC50 among 1 and 2 . # respond with the chosen item's label
-- reply 2
(2: 0.4 nM, 1: 0.954 nM)

---

Biological target: Bcl-xL (Homo sapiens, UniProt Q07817)
Construct: Measured levels of Bcl-xL protein of HCT116 cells treated with the tested compounds; host or cells: HCT116
Assay: HCT116 Bcl-xL degradation, capillary-based immunoassay (WES)
Format: cell-based
Settings: HCT116, 24 h, 9-point serial dilution
reported-metric: DC50 (nM)

Known DC50 results, listed for orientation:
molecule	reported-metric	value-measured
Cc1ncsc1-c1ccc([C@H](C)NC(=O)[C@@H]2C[C@@H](O)CN2C(=O)[C@@H](NC(=O)CCCCCCCCCCCCN(C)CCOC23CC4(C)CC(C)(CC(Cn5ncc(-c6ccc(N7CCCc8c7nnc(Nc7nc9ccccc9s7)c8C)nc6C(=O)O)c5C)(C4)C2)C3)C(C)(C)C)cc1 [Example 136]	DC50	2.71
Cc1ncsc1-c1ccc(CNC(=O)[C@@H]2C[C@@H](O)CN2C(=O)[C@@H](NC(=O)C2(F)CC2)C(C)(C)C)c(OCCCCCCCCCCCN(C)CCOC23CC4(C)CC(C)(CC(Cn5ncc(-c6ccc(N7CCCc8c7nnc(Nc7nc9ccccc9s7)c8C)nc6C(=O)O)c5C)(C4)C2)C3)c1 [Example 76]	DC50	0.28

[I] Cc1c(Nc2nc3ccccc3s2)nnc2c1CCCN2c1ccc(-c2cnn(CC34CC5(C)CC(C)(C3)CC(OCCN(C)CCCCCCCOc3ccc6c(c3)C(=O)N(C3CCC(=O)NC3=O)C6=O)(C5)C4)c2C)c(C(=O)O)n1 (stereo not shown) [Example 106]
[II] Cc1c(Nc2nc3ccccc3s2)nnc2c1CCCN2c1ccc(-c2cnn(CC34CC5(C)CC(C)(C3)CC(OCCN(C)CCCCCCCCCCCC(=O)N3CCC(c6ccc7c(c6)CN(C6CCC(=O)NC6=O)C7=O)CC3)(C5)C4)c2C)c(C(=O)O)n1 (stereo not shown) [Example 69]
-- ask Lab note: check whether I or II has the lower measured DC50. Pick one; state its label.
-- reply I
(I: 0.211 nM, II: 0.711 nM)

---

Molecular target: HiBiT-tagged BCL-xL (Homo sapiens)
Construct: expressed in transfected cells; host or cells: NCI-H1650 (ATCC No. CRL-5883), engineered HiBiT cell line
Assay: NCI-H1650 BCL-xL protein levels, Nano-Glo HiBiT Lytic Detection
Type: cell-based
Settings: NCI-H1650 expressing HiBiT-tagged BCL-xL, overnight incubation, read-out: Bcl-xl HIBIT NCIH1650 DC50
reported-metric: DC50 (nM)

smiles-str	study-system	reported-metric	value-measured
Cc1ncsc1-c1ccc([C@H](C)NC(=O)[C@@H]2C[C@@H](O)CN2C(=O)[C@@H](NC(=O)CCCCCCCCCCCNC(=O)c2nc(N3CCCc4c3nnc(Nc3nc5ccccc5s3)c4C)ccc2-c2cnn(CC34CC5(C)CC(C)(C3)CC(OCCN3CCCC3)(C5)C4)c2C)C(C)(C)C)cc1	HiBiT-tagged BCL-xL (Homo sapiens)	DC50	1

[1] Cc1ncsc1-c1ccc(CNC(=O)[C@@H]2C[C@@H](O)CN2C(=O)[C@@H](NC(=O)C2(F)CC2)C(C)(C)C)c(OCCCCCCCCCN2CCN(CC#Cc3ccc(OCCCc4sc(N5CCCc6c5nnc(Nc5nc7ccccc7s5)c6C)nc4C(=O)O)c(F)c3)CC2)c1
[2] Cc1ncsc1-c1ccc([C@H](C)NC(=O)[C@@H]2C[C@@H](O)CN2C(=O)[C@@H](NC(=O)CC2CC3(C2)CN(C(=O)c2nc(N4CCCc5c4nnc(Nc4nc6ccccc6s4)c5C)ccc2-c2cnn(CC45CC6(C)CC(C)(C4)CC(OCCN4CCCC4)(C6)C5)c2C)C3)C(C)(C)C)cc1
[3] Cc1ncsc1-c1ccc([C@H](C)NC(=O)[C@@H]2C[C@@H](O)CN2C(=O)[C@@H](NC(=O)CCCCCCCCCCCN2CCN(CC#Cc3ccc(OCCCc4sc(N5CCCc6c5nnc(Nc5nc7ccccc7s5)c6C)nc4C(=O)O)c(F)c3)CC2)C(C)(C)C)cc1
-- ask Put these in order: smallest DC50 first, largest last. Answer by naming the labels in the order asked.
-- reply 3, 2, 1
